- System Tested: Fes (UniProt P07332)
- Sequence (P07332 whole entry, looked up): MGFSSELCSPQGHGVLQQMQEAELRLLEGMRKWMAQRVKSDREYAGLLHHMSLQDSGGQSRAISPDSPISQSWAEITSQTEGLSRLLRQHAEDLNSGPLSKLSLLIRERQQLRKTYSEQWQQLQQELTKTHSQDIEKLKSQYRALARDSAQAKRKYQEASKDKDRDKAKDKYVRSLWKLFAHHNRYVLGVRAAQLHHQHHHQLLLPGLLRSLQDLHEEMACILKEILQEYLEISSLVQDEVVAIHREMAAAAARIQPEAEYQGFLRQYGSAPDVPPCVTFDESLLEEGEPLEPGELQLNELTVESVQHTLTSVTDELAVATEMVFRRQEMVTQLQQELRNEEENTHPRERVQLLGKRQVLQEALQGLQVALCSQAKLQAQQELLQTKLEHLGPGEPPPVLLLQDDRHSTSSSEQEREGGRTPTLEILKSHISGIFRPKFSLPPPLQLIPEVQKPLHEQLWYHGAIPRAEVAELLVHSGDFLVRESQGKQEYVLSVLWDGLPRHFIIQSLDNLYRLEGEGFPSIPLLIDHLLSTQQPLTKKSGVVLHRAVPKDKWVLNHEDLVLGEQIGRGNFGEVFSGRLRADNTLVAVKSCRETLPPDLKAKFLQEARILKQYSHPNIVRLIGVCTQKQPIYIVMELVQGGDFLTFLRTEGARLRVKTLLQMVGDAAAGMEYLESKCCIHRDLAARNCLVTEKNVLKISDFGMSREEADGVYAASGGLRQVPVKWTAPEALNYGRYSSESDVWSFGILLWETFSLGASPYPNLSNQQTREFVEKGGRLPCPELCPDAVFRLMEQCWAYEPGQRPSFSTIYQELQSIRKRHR
- Procedure Text: phosphorylation enrichment, bacterial display (enrichment ratio); higher = better substrate or ligand; peptides without Tyr show the background;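 also: 11-residue human phosphosite peptides and single-mutation variants displayed on the E. coli surface, counted by deep sequencing, each peptide's frequency after selection divided by its frequency in the unselected input library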;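 also: frequency after pTyr selection over input frequency; kinase dosed for 20-30% of maximal phosphorylation in three min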
Label Fulfilled when phosphorylation enrichment >= 0.8; otherwise Not fulfilled.

| Query Sequence | Class |
| --- | --- |
| AESPEHVHMFT [FAM111A_Y511_Y511H_YF] | Fulfilled |
| HDKEFYSVHNK [MET_Y1235_Y1230H_YF] | Fulfilled |
| IHSGIYYKPES [L2HGDH_Y102] | Not fulfilled |
| TRDTDYQMTKR [ADA_Y308_L304R] | Not fulfilled |
| PRNLIYFGEHP [TRPV6_Y201_C197R] | Fulfilled |
| AGLEEYSAMRD [HRAS_Y64_Q61L] | Fulfilled |
| MWGSDYVQLSR [MAP3K4_Y582] | Not fulfilled |
| EASEQHLTKAS [NRCAM_Y739_Y739H] | Fulfilled |
| REAAAYPHGRL [AGXT_Y297_L298P] | Not fulfilled |
| IVAEFYDNLPH [DEGS1_Y284_A280V_YF] | Fulfilled |

Challenge: Answer whether phosphorylation enrichment of FSKDIYKRVTG [PANK2_Y405_N404I_YF] is greater than or equal to 0.8.
Response given: Not fulfilled

Challenge: Would you mind doing EACRSYSHVVL [CHST6_Y168] as well?
Response given: Not fulfilled
